system_under_test: T1, mature pertactin (Prn), wild type (Bordetella pertussis, strain  …)
T1 construct: Pertactin (Prn) of Bordetella pertussis, mature N-terminal passenger domain (63 kDa), cut from the precursor; Kept in 0.06% C10E5 detergent for native MS; also called Prn antigen; wild-type Prn
T1 chain: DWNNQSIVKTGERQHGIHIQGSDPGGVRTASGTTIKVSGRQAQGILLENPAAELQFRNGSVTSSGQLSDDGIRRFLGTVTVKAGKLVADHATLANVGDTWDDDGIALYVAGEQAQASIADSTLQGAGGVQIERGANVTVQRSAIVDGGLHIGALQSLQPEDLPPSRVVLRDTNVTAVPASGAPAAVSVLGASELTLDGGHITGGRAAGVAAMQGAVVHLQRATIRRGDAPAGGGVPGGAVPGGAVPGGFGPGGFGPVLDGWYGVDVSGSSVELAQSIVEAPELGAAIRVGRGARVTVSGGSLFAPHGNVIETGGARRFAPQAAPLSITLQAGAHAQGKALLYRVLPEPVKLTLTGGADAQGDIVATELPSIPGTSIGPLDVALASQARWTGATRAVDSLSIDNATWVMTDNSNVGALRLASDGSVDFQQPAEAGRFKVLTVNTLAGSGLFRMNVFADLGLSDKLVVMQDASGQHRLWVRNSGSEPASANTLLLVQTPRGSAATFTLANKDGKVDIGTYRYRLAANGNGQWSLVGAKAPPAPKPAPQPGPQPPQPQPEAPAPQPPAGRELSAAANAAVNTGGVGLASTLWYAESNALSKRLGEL
assay_text: native MS; titration: fixed 2 µM mAb, Prn 0.5 µM to 8 µM, 250 mM ammonium acetate with 0.06% C10E5
run_conditions: both partners purified
property_name: stoichiometry N (Prn per mAb)
Response body: numeric value in Prn per mAb, unit text excluded.

So for 2B1 monoclonal antibody (antibody, V domains shown, variable region of 2B1; mouse IgG2a heavy chain constant domains; mouse light chain constant domain; Full-length mouse IgG2a; source: ExpiCHO-S, transfected, purified (Protein A); copies: 2 + 2) VH: QVQLQQSGPELVKPGASVKISCKASGYSFTDYNMYWVKQSHGKSLEWIGYFDPYNGGIYYNQNFKGRATLTVDKSSSTAFMHLNSLTSEDSAVYYCARGGGWFRGFTYWGQGTLVTVSR VL: IQMTQSTSSLSASLGDRVTISCRASQDISNYLNWYQQKPDGTLNLLIYYTSRLHSGVPSRFSGSGSGTDYSLTISNLEQEDIATYFCQQGNTLPYTFGGGTKLEIK , the logged stoichiometry N turned out to be 2

Data provenance is paper PMC12994607.
